biological target: smooth muscle angiotensin II receptor; assay: Assay A: Angiotensin II Binding Activity (displacement of 125I-angiotensin II, rat uterine membrane preparation); settings: 50% displacement of specifically bound 125I-AII, rat uterine membranes, 25° C., 60 min, pH 7.5
Here, each record is paired with measured IC50 data.
measured_attribute: IC50 (nM)

>>> print(df.to_string())
                                    compound  reported
 0  CCCCc1nc(CCCC)n2c1C=CCCC2c1ccc(-c2ccccc2-c2nnn[nH]2)cc1 (stereo not drawn)       330
 1  CCCCc1ncc2n1[C@@H](c1ccc(-c3ccccc3-c3nn[nH]n3)cc1)CC[C@H]2CC(=O)OC(C)(C)C (relative stereo)        67
 2  CCCCc1nc(CCCC)n2c1C(=NO)CCC2c1ccc(-c2ccccc2-c2nn[nH]n2)cc1 (stereo not drawn)        66
 3  CCCCc1ncc2n1[C@@H](c1ccc(-c3ccccc3-c3nn[nH]n3)cc1)CC[C@@H]2O (relative stereo)       120
 4  CCCCc1ncc2n1[C@@H](c1ccc(-c3ccccc3-c3nn[nH]n3)cc1)CC[C@H]2CC(=O)O (relative stereo)       240
 5  CCCCc1ncc2n1C(c1ccc(-c3ccccc3-c3nn[nH]n3)cc1)CCC2=O (stereo not drawn)       110
 6  CCCCc1nc(CCCC)n2c1CCCC2c1ccc(-c2ccccc2-c2nnn[nH]2)cc1 (stereo not drawn)       270
 7  CCCCc1nc(CCCC)n2c1C(=CC(=O)O)CCC2c1ccc(-c2ccccc2-c2nnn[nH]2)cc1 (stereo not drawn)     15000
 8  CCCCc1nc(CCCC)n2c1C=C(Br)CC2c1ccc(-c2ccccc2-c2nnn[nH]2)cc1 (stereo not drawn)      2100
 9  CCCCc1ncc2n1[C@@H](c1ccc(-c3ccccc3-c3nn[nH]n3)cc1)CC[C@H]2O (relative stereo)        23
10  CCCCc1ncc2n1[C@H](c1ccc(-c3ccccc3-c3nnn[nH]3)cc1)CC[C@@H]2OCc1ccccc1 (relative stereo)        36
11  CCCCc1nc(CCCC)n2c1C(N1C(=O)CCC1=O)CCC2c1ccc(-c2ccccc2-c2nnn[nH]2)cc1 (stereo not drawn)        27
12  CCCCc1nc(CCCC)n2c1C(NC(=O)CCC(=O)NN)CCC2c1ccc(-c2ccccc2-c2nn[nH]n2)cc1 (stereo not drawn)        44
13  CCCCc1nc(CCCC)n2c1C(c1ccccc1)=CCC2c1ccc(-c2ccccc2-c2nnn[nH]2)cc1 (stereo not drawn)      2800
14  CCCCc1ncc2n1C(c1ccc(-c3ccccc3-c3nnn[nH]3)cc1)CCC2=CC(=O)OC(C)(C)C (stereo not drawn)       160
